Heads up, these compounds all have Ki values measured for Metabotropic glutamate receptor 5 (Homo sapiens).
Hi! Could you send only the number? It should be in µM, unit omitted.

Worked cases, answers included:
compound	endpointLabel	unitsSymbol	recordedResult
N[C@@H](Cn1oc(=O)[nH]c1=O)C(=O)O	Ki	µM	0.03
NC(C(=O)O)c1cc(=O)[nH]o1 (stereo not given)	Ki	µM	2

Task: Name the reported Ki value associated with the compound N[C@H](C(=O)O)c1cc(O)cc(O)c1 [amino(3,5-dihydroxyphenyl)acetic acid]
Result: 2

###

- studyTarget: UniProtKB Q14416
- Sequence (Q14416 whole entry): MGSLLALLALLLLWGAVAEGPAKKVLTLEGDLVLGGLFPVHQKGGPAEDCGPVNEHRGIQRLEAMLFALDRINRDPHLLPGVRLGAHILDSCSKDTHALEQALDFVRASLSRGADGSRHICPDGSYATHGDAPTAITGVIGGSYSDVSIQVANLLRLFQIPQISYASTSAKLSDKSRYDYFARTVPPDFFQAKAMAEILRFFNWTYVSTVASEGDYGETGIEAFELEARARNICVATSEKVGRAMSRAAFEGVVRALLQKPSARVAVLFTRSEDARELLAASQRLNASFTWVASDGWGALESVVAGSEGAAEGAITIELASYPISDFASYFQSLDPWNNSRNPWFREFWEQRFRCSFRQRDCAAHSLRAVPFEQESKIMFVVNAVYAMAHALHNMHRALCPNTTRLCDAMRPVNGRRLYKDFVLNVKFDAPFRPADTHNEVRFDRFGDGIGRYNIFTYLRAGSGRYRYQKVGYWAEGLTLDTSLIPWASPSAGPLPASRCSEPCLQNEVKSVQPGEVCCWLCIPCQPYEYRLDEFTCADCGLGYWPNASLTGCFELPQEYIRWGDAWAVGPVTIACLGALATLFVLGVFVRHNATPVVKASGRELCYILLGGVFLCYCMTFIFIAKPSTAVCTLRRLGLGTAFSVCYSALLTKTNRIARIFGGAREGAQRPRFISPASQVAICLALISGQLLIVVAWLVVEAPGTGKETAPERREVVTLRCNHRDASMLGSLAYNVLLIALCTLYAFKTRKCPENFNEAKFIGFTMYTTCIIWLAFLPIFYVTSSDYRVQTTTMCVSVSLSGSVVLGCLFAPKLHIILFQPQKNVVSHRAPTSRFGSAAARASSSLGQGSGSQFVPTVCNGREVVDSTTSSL
endpointLabel: Ki (µM)
Just the number please, in µM, no unit attached.

# count of solved cases: 2
compound	recordedResult
N[C@@]1(C(=O)O)CN[C@@H](C(=O)O)C1	3
N[C@H](C(=O)O)[C@H]1C[C@@H]1C(=O)O	0.3

Task: Would you kindly share the measured Ki for N[C@H](C(=O)O)C1[C@@H](C(=O)O)[C@@H]1C(=O)O (some centres not stated) ?
Result: 0.3
